target: Nucleotide-binding oligomerization domain-containing protein 2 (Homo sapiens); test: Antagonist activity at human NOD2 expressed in HEK-Blue cells assessed as inhibition of MDP-stimulated cell activation at 10 uM preincubated for 3 hrs followed by MDP addition measured after 20 hrs by SEAP reporter gene assay; format: cell-based
Sequence (Q9HC29 whole entry, the tested form may be a part): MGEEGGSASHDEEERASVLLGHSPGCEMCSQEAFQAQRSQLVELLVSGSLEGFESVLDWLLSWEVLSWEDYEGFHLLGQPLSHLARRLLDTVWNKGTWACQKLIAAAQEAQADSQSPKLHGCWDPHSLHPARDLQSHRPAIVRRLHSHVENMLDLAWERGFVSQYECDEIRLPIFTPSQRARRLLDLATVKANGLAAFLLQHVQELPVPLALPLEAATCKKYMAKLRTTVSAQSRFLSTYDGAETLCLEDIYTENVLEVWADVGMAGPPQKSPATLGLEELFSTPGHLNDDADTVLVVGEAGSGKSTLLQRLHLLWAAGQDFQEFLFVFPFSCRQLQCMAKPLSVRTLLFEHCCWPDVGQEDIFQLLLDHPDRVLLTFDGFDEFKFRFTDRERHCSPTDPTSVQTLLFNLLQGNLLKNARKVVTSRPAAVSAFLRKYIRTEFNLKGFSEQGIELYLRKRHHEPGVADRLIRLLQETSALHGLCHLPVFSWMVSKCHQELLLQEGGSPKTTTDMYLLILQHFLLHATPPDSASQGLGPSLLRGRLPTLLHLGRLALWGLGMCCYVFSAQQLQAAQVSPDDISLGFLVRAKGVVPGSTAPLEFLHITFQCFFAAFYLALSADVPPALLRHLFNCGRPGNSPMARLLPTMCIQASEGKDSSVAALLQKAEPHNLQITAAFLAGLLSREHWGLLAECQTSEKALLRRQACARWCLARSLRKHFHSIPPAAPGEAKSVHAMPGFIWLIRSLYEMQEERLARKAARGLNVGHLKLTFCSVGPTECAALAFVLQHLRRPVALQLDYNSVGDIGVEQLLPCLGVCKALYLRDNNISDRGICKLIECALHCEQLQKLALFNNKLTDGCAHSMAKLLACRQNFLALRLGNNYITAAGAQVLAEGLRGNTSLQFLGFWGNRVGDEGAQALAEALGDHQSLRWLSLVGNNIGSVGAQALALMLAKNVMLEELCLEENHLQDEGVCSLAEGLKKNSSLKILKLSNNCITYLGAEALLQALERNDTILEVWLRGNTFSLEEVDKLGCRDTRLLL
Label rule, in plain words: inhibition of 30% and up is Met, under 30% is Not met.

>>> assigned_category("COC(=O)CC[C@H]1NC(=O)c2cc(OC)c(NC(=O)c3cc(C(F)(F)F)cc(C(F)(F)F)c3)cc2NC1=O")
"Not met"
>>> assigned_category("COC(=O)CC[C@H]1NC(=O)c2cc(Oc3cccc(N(C)C)c3)c(NC(=O)COCc3ccccc3)cc2NC1=O")
"Met"
>>> assigned_category("COC(=O)CC[C@H]1NC(=O)c2cc(Oc3cccc(N(C)C)c3)c(NC(=O)COCc3ccc(C#N)cc3)cc2NC1=O")
"Met"
>>> assigned_category("COC(=O)CC[C@H]1NC(=O)c2cc(Oc3cccc(N(C)C)c3)c(NC(=O)COCc3ccc(Cl)cc3)cc2NC1=O")
"Met"
>>> assigned_category("COC(=O)CC[C@H]1NC(=O)c2cc(N3CCOCC3)c(NC(=O)Cc3ccccc3)cc2NC1=O")
"Met"
>>> assigned_category("COC(=O)CC[C@H]1NC(=O)c2cc(Oc3cc(Cl)c(Cl)c(N(C)C)c3Cl)c(NC(=O)COCc3ccccc3)cc2NC1=O")
"Met"
>>> assigned_category("CN(C)C(=O)CC[C@H]1NC(=O)c2cc(Oc3cccc(N(C)C)c3)c(NC(=O)COCc3ccccc3)cc2NC1=O")
"Met"
>>> assigned_category("COC(=O)CC[C@H]1NC(=O)c2cc(Oc3cc(N(C)C)c(Cl)c(Cl)c3Cl)c(NC(=O)COCc3ccccc3)cc2NC1=O")
"Not met"

Ask: Say whether COC(=O)CC[C@H]1NC(=O)c2cc(Oc3ccc(C)c(C)c3)c(NC(=O)C3CC3)cc2NC1=O shows inhibition of 30% or more.
Result: Not met

Ask: Say whether COC(=O)CC[C@H]1NC(=O)c2cc(N3CCOCC3)c(NC(=O)C3CC3)cc2NC1=O shows inhibition of 30% or more.
Result: Not met

Ask: Say whether CN(C)c1cccc(Oc2cc3c(cc2NC(=O)COCc2ccccc2)NC(=O)[C@@H](CCC(N)=O)NC3=O)c1 shows inhibition of 30% or more.
Result: Not met

Ask: Say whether CCN(CC)C(=O)CC[C@H]1NC(=O)c2cc(Oc3cccc(N(C)C)c3)c(NC(=O)COCc3ccccc3)cc2NC1=O shows inhibition of 30% or more.
Result: Met

Ask: Say whether CCCNC(=O)CC[C@H]1NC(=O)c2cc(Oc3cccc(N(C)C)c3)c(NC(=O)COCc3ccc(Cl)cc3)cc2NC1=O shows inhibition of 30% or more.
Result: Met

Ask: Say whether CCCCCCCCCCCCNC(=O)CC[C@H]1NC(=O)c2cc(N3CCOCC3)c(NC(=O)C3CC3)cc2NC1=O shows inhibition of 30% or more.
Result: Not met

Ask: Say whether COC(=O)CC[C@H]1NC(=O)c2cc(Oc3cccc(N(C)C)c3)c(NC(=O)COCc3ccc(F)cc3Cl)cc2NC1=O shows inhibition of 30% or more.
Result: Not met

Ask: Say whether CCCNC(=O)CC[C@H]1NC(=O)c2cc(Oc3cccc(N(C)C)c3)c(NC(=O)COCc3ccc(F)cc3)cc2NC1=O shows inhibition of 30% or more.
Result: Met

Ask: Say whether COC(=O)CC[C@H]1NC(=O)c2cc(Oc3ccc(Cl)c(N(C)C)c3)c(NC(=O)COCc3ccc(Cl)cc3)cc2NC1=O shows inhibition of 30% or more.
Result: Met

Ask: Say whether COC(=O)CC[C@H]1NC(=O)c2cc(Oc3cccc(N(C)C)c3)c(NC(=O)COCc3ccc(F)c(F)c3)cc2NC1=O shows inhibition of 30% or more.
Result: Met

Ask: Say whether COC(=O)CC[C@H]1NC(=O)c2cc(Cl)ccc2NC1=O shows inhibition of 30% or more.
Result: Not met
